pIC50 tested on SARS-CoV-2 main protease (Severe acute respiratory syndrome coronavirus 2, UniProt P0DTD1): recorded values
The scale used: pIC50 is minus the common logarithm of the concentration in molar units.

As a guide, the following entries are already answered.
# input Given Cc1ccccc1C[C@@H]1NC(=O)Cc2ccccc2NC(=O)C[C@H](Cc2ccc(Cl)c(Cl)c2)NC(=O)[C@H](Cc2cccnc2)NC1=O [Compound 142] , report its pIC50 on SARS-CoV-2 main protease (Severe acute respiratory syndrome coronavirus 2, UniProt P0DTD1).
# output 5.72

# input Give pIC50 for this entry on SARS-CoV-2 main protease (Severe acute respiratory syndrome coronavirus 2, UniProt P0DTD1): O=C1C[C@H](Cc2ccc(Br)cc2)NC(=O)[C@H](Cc2cccnc2)NC(=O)[C@H](Cc2cccc(C(F)(F)F)c2)NC(=O)Cc2ccccc2N1 [Compound 137]
# output 5.90

# input Enter measured pIC50, system SARS-CoV-2 main protease (Severe acute respiratory syndrome coronavirus 2, UniProt P0DTD1), for the compound shown: O=C1C[C@H](Cc2ccc(Cl)c(Cl)c2)NC(=O)[C@H](Cc2cccnc2)NC(=O)[C@H](Cc2cccc(C(F)(F)F)c2)NC(=O)Cc2ccccc2N1 [Compound 136]
# output 5.83

# input # return pIC50 for O=C1C[C@H](Cc2c(F)c(F)c(F)c(F)c2F)NC(=O)[C@H](Cc2cccnc2)NC(=O)[C@H](Cc2cccc(C(F)(F)F)c2)NC(=O)Cc2ccccc2N1 [Compound 131] , test system: SARS-CoV-2 main protease (Severe acute respiratory syndrome coronavirus 2, UniProt P0DTD1)
# output 5.39

# input GET pIC50 | system: SARS-CoV-2 main protease (Severe acute respiratory syndrome coronavirus 2, UniProt P0DTD1) | item: O=C1C[C@H](Cc2ccccc2Cl)NC(=O)[C@H](Cc2cccnc2)NC(=O)[C@H](Cc2cccc(Cl)c2)NC(=O)Cc2ccccc2N1 [Compound 132]
# output 5.90

More entries:
# input # return pIC50 of O=C1C[C@H](Cc2cccc(Cl)c2)NC(=O)[C@H](Cc2cccnc2)NC(=O)[C@H](Cc2cccc(Cl)c2)NC(=O)Cc2ccccc2N1 [Compound 143] (system: SARS-CoV-2 main protease (Severe acute respiratory syndrome coronavirus 2, UniProt P0DTD1))
# output 5.58

# input Quote SARS-CoV-2 main protease (Severe acute respiratory syndrome coronavirus 2, UniProt P0DTD1) pIC50 for entry O=C1C[C@H](Cc2ccc(F)cc2)NC(=O)[C@H](Cc2cccnc2)NC(=O)[C@H](Cc2cccc(Cl)c2)NC(=O)Cc2ccccc2N1 [Compound 141] .
# output 5.74

# input Consider the compound Cc1cccc(C[C@H]2CC(=O)Nc3ccccc3CC(=O)N[C@@H](Cc3cccc(C(F)(F)F)c3)C(=O)N[C@@H](Cc3cccnc3)C(=O)N2)c1 [Compound 138] tested on SARS-CoV-2 main protease (Severe acute respiratory syndrome coronavirus 2, UniProt P0DTD1); state its pIC50.
# output 5.67

# input State pIC50 on SARS-CoV-2 main protease (Severe acute respiratory syndrome coronavirus 2, UniProt P0DTD1). Entry: Cc1ccccc1C[C@@H]1NC(=O)Cc2ccccc2NC(=O)C[C@H](Cc2cc(F)c(F)cc2F)NC(=O)[C@H](Cc2cccnc2)NC1=O [Compound 140]
# output 5.82

# input Please respond with reported pIC50 (system SARS-CoV-2 main protease (Severe acute respiratory syndrome coronavirus 2, UniProt P0DTD1)) for O=C1C[C@H](Cc2ccc(Br)cc2)NC(=O)[C@H](Cc2cccnc2)NC(=O)[C@H](Cc2cccc(Cl)c2)NC(=O)Cc2ccccc2N1 [Compound 134] .
# output 5.91

# input Give SARS-CoV-2 main protease (Severe acute respiratory syndrome coronavirus 2, UniProt P0DTD1) pIC50 for the following compound: O=C1C[C@H](Cc2ccccc2Cl)NC(=O)[C@H](Cc2cccnc2)NC(=O)[C@H](Cc2cccc(C(F)(F)F)c2)NC(=O)Cc2ccccc2N1 [Compound 144]
# output 5.90

# input Return reported pIC50 for target or system SARS-CoV-2 main protease (Severe acute respiratory syndrome coronavirus 2, UniProt P0DTD1), item Cc1ccccc1C[C@@H]1NC(=O)Cc2ccccc2NC(=O)C[C@H](Cc2c(F)c(F)c(F)c(F)c2F)NC(=O)[C@H](Cc2cccnc2)NC1=O [Compound 139] .
# output 5.63

# input State pIC50 on SARS-CoV-2 main protease (Severe acute respiratory syndrome coronavirus 2, UniProt P0DTD1). Entry: Cc1ccccc1C[C@@H]1NC(=O)Cc2ccccc2NC(=O)C[C@H](Cc2ccccc2)NC(=O)[C@H](Cc2cccnc2)NC1=O [Compound 218]
# output 4.75

# input System SARS-CoV-2 main protease (Severe acute respiratory syndrome coronavirus 2, UniProt P0DTD1). Read-out pIC50. Item Cc1cccc(C[C@H]2CC(=O)Nc3ccccc3CC(=O)N[C@@H](Cc3ccccc3C)C(=O)N[C@@H](Cc3cccnc3)C(=O)N2)c1 [Compound 135] . Report value.
# output 5.83

# input // fetch pIC50; item: Cc1ccccc1C[C@@H]1NC(=O)Cc2ccccc2NC(=O)C[C@H](Cc2ccccc2Cl)NC(=O)[C@H](Cc2cccnc2)NC1=O [Compound 133] ; system: SARS-CoV-2 main protease (Severe acute respiratory syndrome coronavirus 2, UniProt P0DTD1)
# output 6.07
